Data provenance is ChEMBL document CHEMBL1123845.

experimental.system: Polyunsaturated fatty acid 5-lipoxygenase (Rattus norvegicus)
Sequence (P12527 whole entry): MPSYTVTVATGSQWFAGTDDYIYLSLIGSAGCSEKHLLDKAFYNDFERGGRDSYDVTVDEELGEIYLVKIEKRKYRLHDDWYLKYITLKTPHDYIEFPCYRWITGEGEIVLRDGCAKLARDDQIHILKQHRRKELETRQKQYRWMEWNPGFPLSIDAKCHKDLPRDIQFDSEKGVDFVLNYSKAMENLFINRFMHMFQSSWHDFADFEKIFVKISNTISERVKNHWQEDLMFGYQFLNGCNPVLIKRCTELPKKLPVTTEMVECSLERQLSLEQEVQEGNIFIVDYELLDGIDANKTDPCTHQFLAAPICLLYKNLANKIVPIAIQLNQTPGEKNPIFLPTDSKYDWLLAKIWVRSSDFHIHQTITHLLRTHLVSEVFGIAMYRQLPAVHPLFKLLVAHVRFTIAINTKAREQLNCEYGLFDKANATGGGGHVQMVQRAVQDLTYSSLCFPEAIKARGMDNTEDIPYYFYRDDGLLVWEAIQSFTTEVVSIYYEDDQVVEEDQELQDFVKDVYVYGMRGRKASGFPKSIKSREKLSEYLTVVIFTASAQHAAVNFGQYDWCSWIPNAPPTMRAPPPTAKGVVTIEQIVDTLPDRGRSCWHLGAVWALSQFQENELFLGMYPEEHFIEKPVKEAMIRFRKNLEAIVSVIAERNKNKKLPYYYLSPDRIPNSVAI
protocol.summary: Inhibition of rat basophilic leukemia-1 (RBL-1) 5-lipoxygenase
Type: cell-based
readout.name: pIC50
Value format note: pIC50 is -log10 of concentration (mol/L); just state the number.

[
  {
    "compound": "O=C(O)CCCCCCCCC/C=C/C=C/C(O)CC1CCCC1 (centres undefined)",
    "readout.name": "pIC50",
    "observed": 4.21
  },
  {
    "compound": "CCCC(O)/C=C/C#CCCCCCCCCCC(=O)O (centres undefined)",
    "readout.name": "pIC50",
    "observed": 3.59
  },
  {
    "compound": "CCCCC[C@H](O)/C=C/C=C\\C/C=C\\C/C=C\\CCCC(=O)O",
    "readout.name": "pIC50",
    "observed": 5.14
  },
  {
    "compound": "CCCC(O)/C=C/C=C/CCCCCCCCCC(=O)O (centres undefined)",
    "readout.name": "pIC50",
    "observed": 3.80
  },
  {
    "compound": "CCCCCC(=O)/C=C/C=C\\CCCCCCCCCC(=O)O",
    "readout.name": "pIC50",
    "observed": 4.26
  }
]

Write down pIC50 measured for item O=C(O)CCCCCCCCCC#C/C=C/C(O)CC1CCCC1 (centres undefined)
4.09

Identify pIC50 associated with the compound `CCCCCC(=O)/C=C/C=C\C/C=C\C/C=C\CCCC(=O)O`
4.59

###

experimental.system: Polyunsaturated fatty acid 5-lipoxygenase (Rattus norvegicus)
Sequence (whole entry): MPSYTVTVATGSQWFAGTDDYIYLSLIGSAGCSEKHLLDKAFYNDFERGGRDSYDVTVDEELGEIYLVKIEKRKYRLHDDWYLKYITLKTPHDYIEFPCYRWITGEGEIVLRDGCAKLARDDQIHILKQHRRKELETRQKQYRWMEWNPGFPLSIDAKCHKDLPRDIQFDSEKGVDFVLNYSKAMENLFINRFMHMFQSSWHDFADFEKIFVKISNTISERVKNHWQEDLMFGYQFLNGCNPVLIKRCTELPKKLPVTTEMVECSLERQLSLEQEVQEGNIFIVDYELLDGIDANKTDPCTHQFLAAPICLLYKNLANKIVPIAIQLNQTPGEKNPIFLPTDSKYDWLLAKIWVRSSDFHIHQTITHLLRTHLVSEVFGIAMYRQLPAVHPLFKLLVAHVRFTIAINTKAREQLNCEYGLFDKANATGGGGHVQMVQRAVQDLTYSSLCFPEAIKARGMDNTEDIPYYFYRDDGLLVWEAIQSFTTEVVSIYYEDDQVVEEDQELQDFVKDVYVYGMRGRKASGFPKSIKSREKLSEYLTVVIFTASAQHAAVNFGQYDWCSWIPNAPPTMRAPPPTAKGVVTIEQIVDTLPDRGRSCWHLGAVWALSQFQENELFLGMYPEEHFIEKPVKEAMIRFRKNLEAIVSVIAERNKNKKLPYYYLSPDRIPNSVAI
protocol.summary: Compound was evaluated for the inhibition of rat basophilic leukemia-1 (RBL-1) 5-Lipoxygenase at 30 uM
Type: cell-based
readout.name: inhibition (%)
Just the number in %, nothing appended.

[
  {
    "molecule": "CCCCCC(O)/C=C/C=C/CCCCCCCCCC(=O)O (stereo unspecified)",
    "display.unit": "%",
    "inhibition": 33
  },
  {
    "molecule": "CCCCCC/C=C/C#CCCCCCCCCC(=O)O",
    "display.unit": "%",
    "inhibition": 33
  },
  {
    "molecule": "CCCCCC(O)/C=C/C#CCCCCCCCCCC(=O)N(CC)CC (stereo unspecified)",
    "display.unit": "%",
    "inhibition": 49
  },
  {
    "molecule": "CCCCCC(O)/C=C/C=C/CCCCCCCCCCC(=O)O (stereo unspecified)",
    "display.unit": "%",
    "inhibition": 41
  },
  {
    "molecule": "CCCCC[C@H](O)/C=C/C=C\\CCCCCCCCCC(=O)N(CC)CC",
    "display.unit": "%",
    "inhibition": 39
  }
]

Moving on to the next molecule.
Input CCCCCC(O)/C=C/C#CCCCCCCCCCCC(=O)O (stereo unspecified) , output reported inhibition.
24
